Data origin: ChEMBL document CHEMBL2176914

# Species: Homo sapiens
# Assay Info: Selectivity index, ratio of IC50 for human recombinant HDAC1 to IC50 for human recombinant HDAC6
Ratio IC50 class ranges: c1 (below 200), c2 (200 to below 300), c3 (300 or more)

These solved cases illustrate the format of a correct answer.
Prompt: Exam item: assign COc1ccccc1NC(=O)N(CCCO)Cc1ccc(C(=O)NO)cc1 to the correct category.
Completion: c3

Prompt: Exam item: assign COc1ccccc1NC(=O)NCc1ccc(C(=O)NO)cc1 to the correct category.
Completion: c1

Prompt: Exam item: assign CCN(C(=O)NCc1ccc(C(=O)NO)cc1)c1ccccc1 to the correct category.
Completion: c3

Prompt: Exam item: assign COc1ccccc1NC(=O)N(CCc1c[nH]c2ccccc12)Cc1ccc(C(=O)NO)cc1 to the correct category.
Completion: c1

Prompt: Exam item: assign COCCCN(Cc1ccc(C(=O)NO)cc1)C(=O)Nc1ccccc1 to the correct category.
Completion: c3

***
Prompt: Exam item: assign O=C(NO)c1ccc(CN(CCc2ccccc2)C(=O)Nc2ccccc2)cc1 to the correct category.
Completion: c2

Prompt: Exam item: assign COCCCN(C(=O)NCc1ccc(C(=O)NO)cc1)c1ccccc1 to the correct category.
Completion: c2

Prompt: Exam item: assign COCCN(Cc1ccc(C(=O)NO)cc1)C(=O)Nc1ccccc1 to the correct category.
Completion: c2

Prompt: Exam item: assign CCCCN(C(=O)NCc1ccc(C(=O)NO)cc1)c1ccccc1 to the correct category.
Completion: c3

Prompt: Exam item: assign COc1ccccc1NC(=O)N(CCCN(C)C)Cc1ccc(C(=O)NO)cc1 to the correct category.
Completion: c1
